target: NAD-dependent protein deacetylase sirtuin-2 (Homo sapiens) (UniProt Q8IXJ6); test: Inhibition of human SIRT2 at 5 uM
Sequence (Q8IXJ6 whole entry): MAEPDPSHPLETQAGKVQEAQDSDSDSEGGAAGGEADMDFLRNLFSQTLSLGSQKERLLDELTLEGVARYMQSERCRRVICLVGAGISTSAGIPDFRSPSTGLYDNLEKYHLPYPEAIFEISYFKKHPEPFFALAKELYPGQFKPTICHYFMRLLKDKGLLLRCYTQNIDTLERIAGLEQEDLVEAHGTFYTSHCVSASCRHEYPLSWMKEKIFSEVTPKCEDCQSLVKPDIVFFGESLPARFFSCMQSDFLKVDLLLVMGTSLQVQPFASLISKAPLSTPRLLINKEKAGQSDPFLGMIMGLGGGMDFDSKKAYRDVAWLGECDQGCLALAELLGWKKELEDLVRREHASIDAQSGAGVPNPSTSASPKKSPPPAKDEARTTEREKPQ
MEASUREMENT KIND: inhibition (%)

A selection of reference data follows.
>  <MOLECULE>
Cc1cc(C)nc(SCC(=O)Nc2ccc(NCc3cccs3)cc2)n1

>  <ASSAY RESULT>
15

$$$$
>  <MOLECULE>
Cc1cc(C)nc([S+]([O-])CC(=O)Nc2ccc(Oc3ccccc3)cc2)n1 (stereo unspecified)

>  <ASSAY RESULT>
34

$$$$
>  <MOLECULE>
Cc1cc(C)nc(SCC(=O)Nc2ccc(Oc3ccccc3)cc2)n1

>  <ASSAY RESULT>
42

$$$$
>  <MOLECULE>
Cc1cc(C)nc(SCC(=O)Nc2ccc(Cc3ccccc3)cc2)n1

>  <ASSAY RESULT>
70

$$$$
>  <MOLECULE>
Cc1cc(C)nc(SCC(=O)Nc2cccc(NCc3ccccc3)c2)n1

>  <ASSAY RESULT>
64

$$$$
>  <MOLECULE>
Cc1cc(C)nc(SCC(=O)Nc2ccc(C(=O)c3ccccc3)cc2)n1

>  <ASSAY RESULT>
22

$$$$

[a] Cc1ccc(C(=O)Nc2ccc(S(=O)(=O)O)c3cc(S(=O)(=O)O)cc(S(=O)(=O)O)c23)cc1NC(=O)c1cccc(NC(=O)Nc2cccc(C(=O)Nc3cc(C(=O)Nc4ccc(S(=O)(=O)O)c5cc(S(=O)(=O)O)cc(S(=O)(=O)O)c45)ccc3C)c2)c1
[b] CC(=O)Nc1cccc(OCc2cccc(NC(=O)CSc3nc(C)cc(C)n3)c2)c1
[Q] Just tell me: smaller inhibition value, a or b ? Answer by stating the label of the chosen item.
[A] a
(a: 31%, b: 68%)

###

target: UniProtKB Q8IXJ6; assay: Inhibition of human SIRT2 at 5 uM
MEASUREMENT KIND: inhibition (%)

A selection of reference data follows.
>  <MOLECULE>
Cc1cc(C)nc(SCC(=O)Nc2cccc(COc3cccc4cccnc34)c2)n1

>  <TARGET DESC>
UniProtKB Q8IXJ6

>  <inhibition [%]>
41

$$$$
>  <MOLECULE>
Cc1cc(C)nc(SCC(=O)Nc2ccc(OCc3ccccc3)cc2)n1

>  <TARGET DESC>
UniProtKB Q8IXJ6

>  <inhibition [%]>
40

$$$$
>  <MOLECULE>
Cc1cc(C)nc(SCC(=O)Nc2cccc(COc3ccccc3)c2)n1

>  <TARGET DESC>
UniProtKB Q8IXJ6

>  <inhibition [%]>
71

$$$$
>  <MOLECULE>
Cc1cc(C)nc(SCC(=O)Nc2ccc(NCc3ccncc3)cc2)n1

>  <TARGET DESC>
UniProtKB Q8IXJ6

>  <inhibition [%]>
10

$$$$
>  <MOLECULE>
Cc1cc(C)nc(SCC(=O)Nc2cccc(Nc3ccccc3)c2)n1

>  <TARGET DESC>
UniProtKB Q8IXJ6

>  <inhibition [%]>
61

$$$$

[P] Cc1cc(C)nc(SCC(=O)Nc2ccc(C(O)c3ccccc3)cc2)n1 (centres undefined)
[Q] Cc1cc(C)nc(SCC(=O)Nc2ccc(NCc3ccco3)cc2)n1
[Q] Just tell me: smaller inhibition value, P or Q ? Answer by stating the label of the chosen item.
[A] Q

[A] Cc1cc(C)nc(SCC(=O)Nc2cccc(COc3ccc(NS(=O)(=O)c4ccccc4)cc3)c2)n1
[B] Cc1cc(C)nc(SCC(=O)Nc2ccc(NCc3ccccc3)cc2)n1
[Q] Which item exceeds the other in inhibition, A or B ? Answer by stating the label of the chosen item.
[A] A

[a] Cc1cc(C)nc(SCC(=O)Nc2cccc(COc3ccc4ccccc4c3)c2)n1
[b] Cc1cc(C)nc(SCC(=O)Nc2ccc(CNc3ccccc3)cc2)n1
[c] Cc1cc(C)nc(SCC(=O)Nc2ccc(COc3ccccc3)cc2)n1
[Q] Arrange by inhibition, high to low. Provide your answer as the labels ordered per the instruction.
[A] a, b, c
(a: 59%, b: 20%, c: 1%)

[P] Cc1cc(C)nc(SCC(=O)Nc2cccc(Cc3ccccc3)c2)n1
[Q] Cc1cc(C)nc(SCC(=O)Nc2ccc(Nc3ccccc3)cc2)n1
[Q] Just tell me: smaller inhibition value, P or Q ? Answer by stating the label of the chosen item.
[A] Q
(Q: 19%, P: 73%)

Hey, just so you know, these numbers are from ChEMBL document CHEMBL4020726.
